- System: Streptococcus pyogenes
- protocol_summary: Growth inhibition of Streptococcus pyogenes UMAA2616 at 50 uM relative to control
- Assay type: organism-based
- test_context: in vitro
experimental_readout: T/C

[[record]]
molecule = "C=CCn1c(SCc2ccc(OC)cc2)nc2c(c1=O)C1(CCCCC1)Cc1ccccc1-2"
study_target = "Streptococcus pyogenes"
value_measured = 1.05

[[record]]
molecule = "CCn1c(SCCOC)nc2c(c1=O)C(C)(C)Cc1ccccc1-2"
study_target = "Streptococcus pyogenes"
value_measured = 0.39

[[record]]
molecule = "C=CCn1c(SCc2ccccn2)nc2c(c1=O)C(C)(C)Cc1ccccc1-2"
study_target = "Streptococcus pyogenes"
value_measured = 1.05

[[record]]
molecule = "C=CCn1c(SCC)nc2c(c1=O)C(C)(C)Cc1cc(OCCCC)ccc1-2"
study_target = "Streptococcus pyogenes"
value_measured = 0.87

[[record]]
molecule = "C=CCn1c(SCC)nc2c(c1=O)C(C)(C)Cc1cc(OCCCCCCC)ccc1-2"
study_target = "Streptococcus pyogenes"
value_measured = 1.05

[[record]]
molecule = "CCSc1nc2c(c(=O)n1CC(F)(F)F)C(C)(C)Cc1ccc(OC)cc1-2"
study_target = "Streptococcus pyogenes"
value_measured = 1.01

[[record]]
molecule = "C=CCn1c(SCC#N)nc2c(c1=O)C(C)(C)Cc1ccccc1-2"
study_target = "Streptococcus pyogenes"
value_measured = 1

[[record]]
molecule = "C=CCn1c(SCCOC)nc2c(c1=O)C(C)(C)Cc1cc(C(=O)NCCc3c[nH]cn3)ccc1-2"
study_target = "Streptococcus pyogenes"
value_measured = 0.99

[[record]]
molecule = "C=CCn1c(SCCCC)nc2c(c1=O)C1(CCCCC1)Cc1ccccc1-2 [CCG-2979]"
study_target = "Streptococcus pyogenes"
value_measured = 0.95

[[record]]
molecule = "C=CCn1c(SCCN(C)C)nc2c(c1=O)C1(CCCCC1)Cc1ccccc1-2"
study_target = "Streptococcus pyogenes"
value_measured = 0.88


---

pIC50: −log10 of the molar value.
Hi! I'm sharing some pIC50 results obtained with UniProt:P96471.
Sequence (P96471 whole entry): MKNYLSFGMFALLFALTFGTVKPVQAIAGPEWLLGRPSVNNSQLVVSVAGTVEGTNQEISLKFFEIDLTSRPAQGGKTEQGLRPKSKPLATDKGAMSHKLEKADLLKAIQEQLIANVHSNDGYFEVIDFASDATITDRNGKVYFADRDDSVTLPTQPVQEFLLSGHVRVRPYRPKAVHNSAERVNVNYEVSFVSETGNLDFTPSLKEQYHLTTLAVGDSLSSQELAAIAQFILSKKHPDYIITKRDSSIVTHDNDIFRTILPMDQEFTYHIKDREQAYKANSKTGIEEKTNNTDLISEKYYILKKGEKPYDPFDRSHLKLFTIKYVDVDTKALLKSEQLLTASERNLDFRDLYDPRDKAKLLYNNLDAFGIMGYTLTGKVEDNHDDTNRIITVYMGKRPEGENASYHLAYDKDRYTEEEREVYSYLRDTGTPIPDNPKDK
experimental_readout: pIC50

[[record]]
smiles_string = "C=CCn1c(SCCCC)nc2c(c1=O)C1(CCCCC1)Cc1ccccc1-2"
experimental_readout = "pIC50"
value_measured = "< 4.30"

[[record]]
smiles_string = "C=CCn1c(SCc2ccccc2)nc2c(c1=O)C1(CCCCC1)Cc1ccccc1-2"
experimental_readout = "pIC50"
value_measured = "< 4.30"


---

The molecules listed here are annotated with their T/C.
- System: Streptococcus pyogenes
- protocol_summary: Growth inhibition of Streptococcus pyogenes UMAA2616 at 50 uM relative to control
- Format: organism-based
- test_context: in vitro
experimental_readout: T/C

[[record]]
smiles_string = "C=CCn1c(NCC)nc2c(c1=O)C(C)(C)Cc1cc(CC(=O)OCC)ccc1-2"
value_measured = 1.02

[[record]]
smiles_string = "C=CCn1c(OCC)nc2c(c1=O)C(C)(C)Cc1ccccc1-2"
value_measured = 0.5

[[record]]
smiles_string = "C=CCn1c(NCC)nc2c(c1=O)C(C)(C)Cc1ccccc1-2"
value_measured = 0.06

[[record]]
smiles_string = "CCn1c(SCc2ccccc2)nc2c(c1=O)C1(CCCC1)Cc1ccccc1-2"
value_measured = 1.07

[[record]]
smiles_string = "C=CCn1c(SCc2ccc(NC(C)=O)cc2)nc2c(c1=O)C1(CCCCC1)Cc1ccccc1-2"
value_measured = 0.96

[[record]]
smiles_string = "C=CCn1c(NCC)nc2c(c1=O)C1(CCCCC1)Cc1ccccc1-2"
value_measured = 0.32

[[record]]
smiles_string = "COCCSc1nc2c(c(=O)n1CCc1ccc(OC)cc1)C(C)(C)Cc1ccccc1-2"
value_measured = 0.97

[[record]]
smiles_string = "C=CCn1c(SCC)nc2c(c1=O)C(C)(C)Cc1cc(OCCc3ccccc3)ccc1-2"
value_measured = 1.01

[[record]]
smiles_string = "C=CCn1c(SCC(N)=O)nc2c(c1=O)C(C)(C)Cc1ccccc1-2"
value_measured = 1

[[record]]
smiles_string = "C=CCn1c(SCCOC)nc2c(c1=O)C(C)(C)Cc1cc(C(=O)NCc3ccccc3)ccc1-2"
value_measured = 1.07

